Experimental Details: RPMI8226 myeloma cell viability, profiling panel, resazurin fluorescence, basal, 24 h, PK04 Diversity Set (AID 1180);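 note: RPMI8826 multiple myeloma cell line at 5000 cells per well; test concentration not given here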
Test Settings: higher = more signal
Note to self: class = bucket of z-score, per bucket A: < -0.8; bucket B: ≥ -0.8 and < -0.1; bucket C: ≥ -0.1

COC(=O)C(CC#Cc1ccc2c(c1)[C@]1(C(=O)N2)[C@H](C(N)=O)[C@H]2C(=O)O[C@H](c3ccccc3)[C@H](c3ccccc3)N2[C@@H]1c1ccccc1OCCO)C(=O)OC = bucket A
CC(C)C(=C=CC[C@H](O)c1cccc(OCCO)c1)C[C@H](O)c1ccccn1 = bucket C
Cc1ccc(S(=O)(=O)N2[C@@H](c3ccccc3)C(C(=O)O)=CC[C@H]2c2ccc(F)cc2)cc1 = bucket A
C[C@@]1([C@@H](NS(=O)(=O)c2cccc3cccnc23)c2ccc(-c3ccccc3)cc2)C[C@H]1C1CCCCC1 = bucket B
O=C1O[C@@H](c2ccccc2)[C@@H](c2ccccc2)N2[C@@H](c3ccc(OCCO)cc3)[C@]3(C(=O)Nc4ccc(C#CC5=CCCCC5)cc43)[C@@H](C(=O)Nc3nc4ccccc4s3)[C@H]12 = bucket A
C=CCOC(=O)[C@H]1[C@@H]2C(=O)O[C@@H](c3ccccc3)[C@@H](c3ccccc3)N2[C@@H](c2ccc(OCCOC(=O)[C@H]3C[C@H]4C(=O)NCC(=O)N4[C@H]3c3cccc(OCCO)c3)cc2)[C@]12C(=O)Nc1ccc(I)cc12 = bucket C
C=C(CCCC)C(=O)CC[C@H](OC(=O)c1ccccc1-c1ccccc1C(=O)O)c1cccc(OCCO)c1 = bucket B
CCOC(=O)C1=CCC(c2cccn2C(=O)OC(C)(C)C)N(S(=O)(=O)c2ccc(C)cc2)C1 (stereo unspecified) = bucket B
C=CC[C@H](O)c1ccc(O)c2ccccc12 = bucket A
C=CCNC(=O)[C@@H]1[C@H]2C(=O)O[C@H](c3ccccc3)[C@H](c3ccccc3)N2[C@H](c2ccc(O)cc2)[C@@]12C(=O)Nc1ccc(C#CC3=CCCCC3)cc12 = bucket A

Request: Which bin should I file CC(C)C[C@@H]1NC(=O)[C@H]2C[C@@H](C(=O)O)[C@@H](c3cccc(OCCO)c3)N2C1=O under?
Result: bucket C

Request: Where would COC(=O)C(CC#Cc1ccc2c(c1)[C@]1(C(=O)N2)[C@H](C(=O)N2CCCCCCC2)[C@H]2C(=O)O[C@H](c3ccccc3)[C@H](c3ccccc3)N2[C@@H]1c1ccc(OCCO)cc1)C(=O)OC land among the classes by reported z-score?
Result: bucket C

Request: Assign a category based on measured z-score for COC(=O)C(CC#Cc1ccc2c(c1)[C@]1(C(=O)N2)[C@H](c2ccccc2OCCO)N2[C@H](c3ccccc3)[C@H](c3ccccc3)OC(=O)[C@H]2[C@@H]1C(=O)N1CCN(c2ncccn2)CC1)C(=O)OC and give only the class name.
Result: bucket A

Request: Please report the category associated with CN(C)CCCC[C@@H]1NC(=O)[C@H]2C[C@@H](C(=O)NCCCCCCNC(=O)CS)[C@@H](c3cccc(OCCO)c3)N2C1=O , nothing else.
Result: bucket B

Request: Determine which band this compound sits in: [N-]=[N+]=NCc1ccccc1C[C@@]1(C(N)=O)N=C(c2ccc(OCCCO)cc2)O[C@@H]1c1ccccc1N=[N+]=[N-]
Result: bucket B

Request: Could you tell me which band CC(C)c1ccc(NN2C(C(O)c3ccccc3)C=CC3C(=O)N(c4ccccc4)C(=O)C32)cc1 (stereo unspecified) belongs to?
Result: bucket C
